# study target: hPASK (kinase domain) (Homo sapiens (Human))
# Sequence (Q96RG2 999-1251): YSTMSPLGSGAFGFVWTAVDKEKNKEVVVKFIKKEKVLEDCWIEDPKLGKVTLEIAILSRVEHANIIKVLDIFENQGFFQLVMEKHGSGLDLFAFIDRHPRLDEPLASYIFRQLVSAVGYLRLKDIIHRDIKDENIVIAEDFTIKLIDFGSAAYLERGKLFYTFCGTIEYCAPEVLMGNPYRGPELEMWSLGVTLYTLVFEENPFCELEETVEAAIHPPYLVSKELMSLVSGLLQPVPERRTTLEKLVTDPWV
As shown below, each of these molecules has a reported IC50 value.

Consider the following illustrative entries.
{"molecule": "COc1ccc(-c2c(C)nn3c(=O)cc(-c4ccccc4)[nH]c23)cc1 [Example 20]", "IC50": "≥ 10 µM"}
{"molecule": "O=c1cc(-c2ccccc2)[nH]c2c(-c3ccc(Cl)cc3)c(Cc3ccccc3)nn12", "IC50": "≥ 10 µM"}
{"molecule": "COc1ccccc1-c1cc(=O)n2nc(C)c(-c3ccccc3)c2[nH]1", "IC50": "≤ 10 µM"}
{"molecule": "CCOC(=O)Cc1cc(=O)n2nc(-c3ccccc3)c(-c3ccccc3)c2[nH]1", "IC50": "≥ 10 µM"}
{"molecule": "O=c1cc(-c2ccc([N+](=O)[O-])cc2)[nH]c2c(-c3ccc(Cl)cc3)c(Cc3ccccc3)nn12", "IC50": "≤ 10 µM"}

Log: hPASK (kinase domain) (Homo sapiens (Human)), molecule Cc1nn2c(=O)cc(-c3ccc4c(c3)OCCO4)[nH]c2c1-c1cccnc1 , IC50 = ≤ 10 µM

Reported IC50 (hPASK (kinase domain) (Homo sapiens (Human))) for entry COc1ccc(-c2c(Cc3ccccc3)nn3c(=O)cc(-c4ccccc4)[nH]c23)cc1 is ≤ 10 µM

I looked up COc1ccc(-c2c(C)nn3c(=O)cc(-c4ccccc4)[nH]c23)cc1 [Example 6] and its IC50 for hPASK (kinase domain) (Homo sapiens (Human)) was ≤ 10 µM
